Quick reference: TGI of the listed items.
Test system: M19-MEL melanoma
Assay: NCI tumour cell line growth inhibition, 48 h

Use these answered entries as a reference point.
Notebook: `COc1cc(CCc2ccc(OCCN(C)C)cc2)cc(OC)c1OC` , TGI read as > 100 µM

Notebook: CCCC/C=C1\CCC(CN2CCCCC2)C1=O (stereo unspecified) , TGI read as 34.5 µM

Notebook: `COc1ccc(C(=O)/C(Br)=C/C(=O)O)cc1` , TGI read as 106 µM

Notebook: `COc1cccc2cc(C)c(C(=O)c3ccccc3)nc12` , TGI read as > 100 µM

Notebook: O=C1CC(O)C=C1Nc1ccc(Cl)cc1 (stereo unspecified) , TGI read as > 100 µM

Here is the next item to consider.
Notebook: `Cc1cc(C)nc(NS(=O)(=O)c2ccc(Nc3c4ccccc4nc4c(C(=O)Nc5ccc(S(=O)(=O)N=C(N)N)cc5)ccc(Cl)c34)cc2)n1` , TGI read as 55.4 µM

---

Quick reference: TGI of the listed items.
System: HL-60(TB) leukemia
Experiment: NCI tumour cell line growth inhibition, 48 h
# value in µM; strip the unit string

Use these answered entries as a reference point.
Notebook: `CCOC(=O)c1c2c(n3ccc(NC(=O)CCN4CCCC4)cc13)C(=O)c1ncccc1C2=O` , TGI read as 3.32

Notebook: CC(C)(C)OC(=O)n1cc(C2CNC(=O)C23CCC(=O)N3Cc2ccccc2)c2ccccc21 (stereo not given) , TGI read as 82.5

Notebook: `Cc1ccc2c(=O)cc(-c3csc4ccccc34)[nH]c2n1` , TGI read as 0.0258

Notebook: `COc1ccc(N=C2CSc3nnc(-c4cc(F)c(Cl)cc4Cl)n3N2)cc1` , TGI read as 0.636

Here is the next item to consider.
Notebook: `COc1ccc2nc3cc(Cl)ccc3c(NCCCCCC(=O)NC(COc3cnc4c(ccc5cccnc54)c3)COc3cnc4c(ccc5cccnc54)c3)c2c1` , TGI read as 15.1

---

Tested on: HCT-15 colon
Assay: NCI tumour cell line growth inhibition, 48 h
Readout Type: TGI (µM)
# value in µM; strip the unit string

Use these answered entries as a reference point.
Per the reported HCT-15 colon data, `CCN(CC)CCOc1nc2ccc(OC)cc2c2c1-c1ccc(OC)cc1C2=O` has TGI of 2.27

Per the reported HCT-15 colon data, `Cc1ccc(C(=O)N(C2CCCCC2)C2CCCCC2)cc1N=NN(C)C` has TGI of 27.1

***
Per the reported HCT-15 colon data, CC1OC(OCC2OC(Oc3c(-c4ccc(O)cc4)oc4cc(O)cc(O)c4c3=O)C(OC3OCC(O)(CO)C3O)C(O)C2O)C(O)C(O)C1O (stereo not given) has TGI of 53.2

---

Test system: K-562 leukemia
Test: NCI tumour cell line growth inhibition, 48 h
Quick reference: TGI of the listed items.

Use these answered entries as a reference point.
Notebook: `Cc1cc(-c2ncc(CC(=O)Nc3ccc(-c4cnccn4)cn3)cc2C)ccn1` , TGI read as > 100 µM

Notebook: `COc1ccc(C2=C(OC(=O)N(C)C)c3cccn3-c3cc(C(F)(F)F)ccc3S2)cc1` , TGI read as > 10 µM

Notebook: CNC(=O)c1cc(OC2CCC(NC(=O)Nc3ccc(Cl)c(C(F)(F)F)c3)CC2)ccn1 (stereo not drawn) , TGI read as 17.3 µM

Here is the next item to consider.
Notebook: CCOC(=O)/C(O)=C1\C(=O)N(C)C(=O)C1c1ccc(OC)c(OC)c1 (stereo not drawn) , TGI read as > 100 µM

---

Quick reference: TGI of the listed items.
System: SK-MEL-2 melanoma
Test: NCI tumour cell line growth inhibition, 48 h

Notebook: COc1cccc(C2CC(C)(N3CCCC3)Oc3cc4c(cc32)OCO4)c1O (stereo not given) , TGI read as 55.8 µM

Notebook: `Cc1c2c(nn1-c1ccc(S(=O)(=O)NC(=S)Nc3ccccc3)cc1)-c1ccccc1CC2` , TGI read as > 50 µM

Notebook: `COc1ccc(-c2nn3ncccc3c2-c2ccnc(Nc3ccc(Cl)c(C(F)(F)F)c3)n2)cc1` , TGI read as > 25 µM

Notebook: `CC(=O)n1c(COS(C)(=O)=O)nc2ccccc21` , TGI read as > 100 µM

Notebook: CC1=NOC2(C1)/C(=N/O)CCC/C2=N\O (stereo not given) , TGI read as > 100 µM

Notebook: COC1=CC(=O)c2ccccc2C1(CCC=C(C)C)C1=NC(C)(C)CO1 (stereo not given) , TGI read as > 100 µM

Notebook: `O=C(NNc1nc(Cl)nc(N2CCN(C(c3ccccc3)c3ccccc3)CC2)n1)c1ccccc1` , TGI read as 3.55 µM

Notebook: `COC(=O)/C=C/c1ccccc1N=[S@](C)(=O)c1ccc(C)cc1` , TGI read as 70.7 µM

Notebook: `O=C(NCCN(CCNC(=O)c1cccc(=O)n1O)CCN(CCNC(=O)c1cccc(=O)n1O)CCNC(=O)c1cccc(=O)n1O)c1cccc(=O)n1O` , TGI read as > 100 µM

Here is the next item to consider.
Notebook: `O=C(Nc1sccc1S(=O)(=O)c1ccccc1)c1cccnc1` , TGI read as > 100 µM

---

Test system: CAKI-1 renal
Assay: NCI tumour cell line growth inhibition, 48 h
Readout Type: TGI (µM)
# value in µM; strip the unit string

Notebook: `Cc1cc2c(cc1Cl)Sc1nnc(Nc3ccccc3)n1S2(=O)=O` , TGI read as 53.8

Notebook: `O=c1[nH]nc(Cc2ccccc2)n1/N=C/c1c[nH]c2ccccc12` , TGI read as 81.8

Notebook: `CN(C)c1cccc2c(S(=O)(=O)N[C@H]3CC[C@H]4[C@@H]5CCc6cc(O)ccc6[C@H]5CC[C@]34C)cccc12` , TGI read as 7.43

Notebook: CNC(=O)c1cc(OC2CCC(NC(=O)Nc3ccc(Cl)c(C(F)(F)F)c3)CC2)ccn1 (configuration not stated) , TGI read as 31.9

Notebook: `C=C1C(=O)O[C@H]2[C@H]1CC/C(Cn1cc(CNC(=O)Cc3cn(C(=O)c4ccc(Cl)cc4)c4ccc(OC)cc34)nn1)=C\CC[C@@]1(C)O[C@@H]21` , TGI read as 2.89

Notebook: `COc1cc2c(cc1C[N+](C)(C)CSc1ccccc1)-c1ccccc1CC2` , TGI read as 26.4

***
Notebook: `Oc1ccc(/C=C\c2nnc(/C=C\c3ccc(O)c(O)c3)s2)cc1O` , TGI read as 16.8

Notebook: `CC(C)/C(Cl)=N/OC(=O)Nc1ccc(F)c(Cl)c1` , TGI read as 3.06

Notebook: `ClCc1cccc(Cn2cnc3c(Cl)ncnc32)c1` , TGI read as 2.93

---

Tested on: TK-10 renal
Test: NCI tumour cell line growth inhibition, 48 h
Quick reference: TGI of the listed items.

Notebook: `O=P(O)(CCP(=O)(O)c1ccccc1)c1ccccc1` , TGI read as > 100 µM

Notebook: `Nc1ccn(CCOC(=O)c2ccccc2)c(=O)n1` , TGI read as > 100 µM

Notebook: COc1ccc2[nH]c(C(=O)N3CC(CCl)c4ccc(N)cc43)cc2c1 (stereo unspecified) , TGI read as > 100 µM

Notebook: N/N=C(\C(=O)Nc1c(Cl)cc([N+](=O)[O-])cc1Cl)C(c1cnc2ccc([N+](=O)[O-])cc2n1)[N+](=O)[O-] (stereo unspecified) , TGI read as > 100 µM

Notebook: `N#CCC(=O)Nc1cccc(C(F)(F)F)c1` , TGI read as > 100 µM

Here is the next item to consider.
Notebook: N#CCC1COc2ccccc2O1 (stereo unspecified) , TGI read as > 10 µM

---

Test system: MDA-MB-435
Assay: NCI tumour cell line growth inhibition, 48 h
Readout Type: TGI

Use these answered entries as a reference point.
Notebook: `Cc1c(C)c(C)c(-n2[nH]c(=O)n(C)c2=O)c(C)c1C` , TGI read as > 100 µM

Notebook: `N#CC1=C2Sc3ccccc3N2[C@H](c2ccccc2)[C@H]2COC(=O)[C@@H]12` , TGI read as > 100 µM

Notebook: `COc1cc2c3c(n(C)c(=O)c2cc1OC)-c1cc2c(cc1/C3=C\CCCCCN)OCO2` , TGI read as > 90.6 µM

Here is the next item to consider.
Notebook: `CC(=O)NNc1nc(C)c(C(/C=C/c2ccc3c(c2)OCO3)=N/Nc2ccccc2)s1` , TGI read as > 100 µM

---

Test system: A498 renal
Assay: NCI tumour cell line growth inhibition, 48 h; in the data active = GI50 below about 0.43 µM; inactive = the rest
The categories you may choose from are active, inactive

Identify the outcome logged in this assay for the compound shown: `COc1cc(/C(C#N)=C/c2ccc3c(c2OC)OCO3)cc2c1OCO2`
active

***
Identify the outcome logged in this assay for the compound shown: `CCN(CC)CCOc1nc2ccc(OC)cc2c2c1-c1ccc(OC)cc1C2=O`
inactive

Identify the outcome logged in this assay for the compound shown: `Cc1cc(-c2ncc(CC(=O)Nc3ccc(-c4cnccn4)cn3)cc2C)ccn1`
inactive

Identify the outcome logged in this assay for the compound shown: CNC(=O)c1cc(OC2CCC(NC(=O)Nc3ccc(Cl)c(C(F)(F)F)c3)CC2)ccn1 (centres undefined)
inactive
